Data credit: the supplement of paper PMC10127200

# Tested on: 786-O
# assaySummary: Euclidean distance of Cell Painting phenotypic profile (signed KS, 77 features) to DMSO centroid (dimensionless distance); 5 or 10 uM (library dependent); higher = stronger phenotypic change vs DMSO (phenoactivity)
# condition: 48 h
Structures can show the parent of a compound that is named as a salt.
Decision: Euclidean distance >= 1 yields condition met, all other cases yield condition not met.

Worked set:
* CC(C)N(CC[C@H](c1ccccc1)c1cc(CO)ccc1O)C(C)C | condition met
* CN(C)CCOC(c1ccccc1)c1ccccc1 [Diphenhydramine HCl] | condition not met
* CCCCCNC(=N)N/N=C/c1c[nH]c2ccc(OC)cc12 [Tegaserod Maleate] | condition met
* CCC[C@H](N[C@@H](C)C(=O)N1[C@H](C(=O)O)C[C@@H]2CCCC[C@@H]21)C(=O)OCC | condition met
* Cc1ccc(NCCCc2ccccc2)c(N)c1 | condition not met

**Q:** Is the recorded value of Euclidean distance equal to or greater than 1 for this compound? c1ccc2c(Oc3nc(Nc4ccc(N5CCOCC5)cc4)c4ncn(C5CCCCC5)c4n3)cccc2c1
**A:** condition met

**Q:** Check if Euclidean distance >= 1 (inclusive). Item: CCN1CCCC1CNC(=O)c1cc(S(=O)(=O)CC)c(N)cc1OC (configuration not stated) [Amisulpride]
**A:** condition met

**Q:** hey, is Euclidean distance for this one >= 1? CC[C@@H]1C(=O)OC[C@@H]1Cc1cncn1C [Pilocarpine HCl]
**A:** condition met

###

Recorded Euclidean distance values for a group of compounds are listed next.
# Tested on: HEPG2
# assaySummary: Euclidean distance of Cell Painting phenotypic profile (signed KS, 77 features) to DMSO centroid (dimensionless distance); 5 or 10 uM (library dependent); higher = stronger phenotypic change vs DMSO (phenoactivity)
# condition: 48 h
Structures can show the parent of a compound that is named as a salt.
Field format: numeric only.

The examples below pair each entry with its known result.
- C#C[C@]1(O)CC[C@H]2[C@@H]3CCC4=CC(=O)CC[C@@H]4[C@H]3C(=C)C[C@@]21CC: 0.628
- N=C(N)NCCN1CCCCCCC1 [Guanethidine Monosulfate]: 0.975
- COc1c(O[C@@H]2O[C@H](CO)[C@@H](O)[C@H](O)[C@H]2O)cc2c(c1OC)-c1ccc(SC)c(=O)cc1[C@@H](NC(C)=O)CC2 [Thiocolchicoside]: 0.502
- CO[C@@]1(NC(=O)C(C(=O)O)c2ccc(O)cc2)C(=O)N2C(C(=O)O)=C(CSc3nnnn3C)CO[C@@H]21 (some centres undefined) [Latamoxef sodium]: 0.797
- CNCCc1ccccn1 [Betahistine 2HCl]: 0.61

**Q:** Dear colleague, please send me the reported Euclidean distance for Fc1cc(-c2cccc3ncc(-c4cnn(C5CCNCC5)c4)nc23)cc(F)c1CN1CCOCC1 when you can.
**A:** 2.39

**Q:** Give the measured Euclidean distance for O=C(O)CCCCC(CCSCc1ccccc1)SCc1ccccc1 (centres undefined)
**A:** 0.938

**Q:** Determine its reported Euclidean distance: COc1cc2c(cc1OC)CC(=O)N(CCCN(C)C[C@H]1Cc3cc(OC)c(OC)cc31)CC2 [Ivabradine HCl]
**A:** 2.1

**Q:** Look up and report measured Euclidean distance for this entry: CN(C)CCOc1ccc(/C(=C(/CCCl)c2ccccc2)c2ccccc2)cc1 [Toremifene Citrate]
**A:** 2.79

**Q:** Check the records and state Euclidean distance for O=C1NC(=O)C(c2ccccc2)(c2ccccc2)N1
**A:** 0.945

**Q:** Provide only the value of recorded Euclidean distance for CC1=NN(c2ccc(C)c(C)c2)C(=O)/C1=N\Nc1cccc(-c2cccc(C(=O)O)c2)c1O [Eltrombopag Olamine]
**A:** 1.69

**Q:** Identify the reported Euclidean distance for the following entry. CCOCc1nc2c(N)nc3ccccc3c2n1CC(C)(C)O
**A:** 0.587

**Q:** For the compound CCCCCNC(=N)N/N=C/c1c[nH]c2ccc(OC)cc12 [Tegaserod Maleate] , give its reported Euclidean distance.
**A:** 4.98

**Q:** Consider the compound CSCC1CN(/N=C/c2ccc([N+](=O)[O-])o2)C(=O)O1 (centres undefined) and give its recorded Euclidean distance.
**A:** 1.19

**Q:** Report Euclidean distance for NC(=O)c1nc(F)cnc1O
**A:** 0.762

**Q:** Give the reported Euclidean distance for this compound. CC(=O)CCCCn1c(=O)c2c(ncn2C)n(C)c1=O
**A:** 0.754

**Q:** Fill in Euclidean distance for record O=C(O[C@@H]1C[C@@H]2C[C@H]3C[C@H](C1)N2CC3=O)c1c[nH]c2ccccc12 [Dolasetron]
**A:** 0.624

###

# System: FB
# assaySummary: Euclidean distance of Cell Painting phenotypic profile (signed KS, 77 features) to DMSO centroid (dimensionless distance); 5 or 10 uM (library dependent); higher = stronger phenotypic change vs DMSO (phenoactivity)
# condition: 48 h
Where a name gives a salt, the structure may show the parent alone.
molecules and their reported Euclidean distance
Reply with just the number.

* C[C@H](NC(=O)CCC(F)(F)F)C(=O)N[C@@H]1C(=O)N(CCO)c2ncccc2-c2ccccc21 | 0.741
* COc1ccc(Cn2ccc3ccc(C(=O)NO)cc32)cc1 | 2.16
* CC(/C=C1\SC(=S)N(CC(=O)O)C1=O)=C\c1ccccc1 [Epalrestat] | 1.45
* CCC[C@@H]1C[C@@H](C(=O)N[C@@H]([C@H]2O[C@H](SC)[C@H](OP(=O)(O)O)[C@@H](O)[C@H]2O)[C@H](C)Cl)N(C)C1 [Clindamycin Phosphate] | 0.907
* CCOc1cc2ncc(C#N)c(Nc3ccc(F)c(Cl)c3)c2cc1NC(=O)/C=C/CN(C)C [Pelitinib (EKB-569)] | 4.45
* C[C@@]1(c2cc(-c3cncnc3)c(F)cc2F)CCSC(N)=N1 | 1.09
* CCN(CC)C(=O)Nc1ccc(OCC(O)CNC(C)(C)C)c(C(C)=O)c1 (centres undefined) [Celiprolol hydrochloride] | 1.17
* O=C(O)CCc1ccc(NCc2cccc(Oc3ccccc3)c2)cc1 | 1.47

Now turn to the next molecule.
**Q:** Please give measured Euclidean distance of the following entry: Oc1c(Br)cc(Br)c2cccnc12 [Broxyquinoline]
**A:** 1.03

###

# System: A549
# assaySummary: Euclidean distance of Cell Painting phenotypic profile (signed KS, 77 features) to DMSO centroid (dimensionless distance); 5 or 10 uM (library dependent); higher = stronger phenotypic change vs DMSO (phenoactivity)
# condition: 48 h
Structures can show the parent of a compound that is named as a salt.
measurementName: Euclidean distance
Answer as a number with no unit attached.

Previously resolved entries follow.
* Nc1ccc(S(N)(=O)=O)cc1 [Sulfanilamide] | 0.563
* CCC(=O)c1c(O)cc(O)cc1O | 0.879
* COc1cc2ncnc(Nc3cccc(Cl)c3F)c2cc1OC(=O)N1CCN(C)C[C@H]1C | 2.05
* COCCOC(=O)C1=C(C)NC(C)=C(C(=O)OC(C)C)C1c1cccc([N+](=O)[O-])c1 (stereo not given) | 1.37

**Q:** Look up Euclidean distance of O=C(O)/C=C/c1ccc(Cn2ccnc2)cc1 [Ozagrel HCl] and report it.
**A:** 0.862

###

# Tested on: DU145
# assaySummary: Euclidean distance of Cell Painting phenotypic profile (signed KS, 77 features) to DMSO centroid (dimensionless distance); 5 or 10 uM (library dependent); higher = stronger phenotypic change vs DMSO (phenoactivity)
# condition: 48 h
Respond with rule met for Euclidean distance values of 1 and above, rule not met for values below.

Reference set (5 entries):
- NC[C@H]1CC[C@H](C(=O)O)CC1: rule not met
- O=C(NOCC(O)CO)c1cc(Br)c(F)c(F)c1Nc1ccc(I)cc1F (configuration not stated): rule met
- Cc1nc(Nc2ncc(C(=O)Nc3c(C)cccc3Cl)s2)cc(N2CCN(CCO)CC2)n1 [Dasatinib]: rule met
- Cc1ccnc2c1NC(=O)c1cccnc1N2C1CC1: rule not met
- O=C(O)Cc1ccccc1Nc1c(Cl)cccc1Cl [Diclofenac Potassium]: rule not met

**Q:** Please tell me: is the molecule CN(C)CCOC(c1ccccc1)c1ccccc1.Cn1c(=O)c2[nH]c(Cl)nc2n(C)c1=O [Dimenhydrinate] at or over 1 in terms of Euclidean distance?
**A:** rule met

**Q:** Confirm if Euclidean distance reported for the molecule Cn1cc(-c2ccc(S(=O)(=O)n3ccc(/C=C/C(=O)Nc4ccccc4N)c3)cc2)cn1 is 1 or above.
**A:** rule met

###

# Tested on: 786-O
# assaySummary: Euclidean distance of Cell Painting phenotypic profile (signed KS, 77 features) to DMSO centroid (dimensionless distance); 5 or 10 uM (library dependent); higher = stronger phenotypic change vs DMSO (phenoactivity)
# condition: 48 h
measurementName: Euclidean distance

- C1COC(NC(C2CC2)C2CC2)=N1 [Rilmenidine Phosphate]: 1.48

**Q:** Query Euclidean distance for C[C@@H]1O[C@@H]1P(=O)(O)O [Fosfomycin Disodium]
**A:** 1.44

**Q:** Respond only with Euclidean distance recorded for CCOC(=O)CCNc1cc(N2CCc3ccccc3CC2)nc(-c2ccccn2)n1
**A:** 2

**Q:** Provide only the value of recorded Euclidean distance for CC(=O)OC[C@H]1O[C@@H]([S-])[C@H](OC(C)=O)[C@@H](OC(C)=O)[C@@H]1OC(C)=O.CCP(CC)CC.[Au+]
**A:** 5.67
